Taken from patent US10745377B2.

- experimental.target: CYP3A4 (Homo sapiens)
- Construct: 0.1 mg/mL protein human liver microsomes (BD Gentest); tissue BD Gentest; host or cells: human liver microsomes
- assay.protocol: Cocktail assay for CYPs in human liver microsomes: CYP3A4 (midazolam 1′-hydroxylation)
- Type: biochemical
- protocol.conditions: human liver microsomes 0.1 mg/mL, 2 μM midazolam, 10 min at 37° C., 6 concentrations up to 10 μM; read-out: IC50 (nM) CYP3A4
Criterion: IC50 strictly under 10 nM. Met: Y. Not met: N.

{"compound": "Cc1cc(C(=O)N2CCN(Cc3cncn3[C@H](C)c3ccc(F)cc3)CC2c2ccccc2)no1 (stereo partly drawn)", "qualitative.label": "N"}
{"compound": "N#Cc1ccc(C2(n3cncc3CN3CCN(c4nc5ccccc5o4)CC3)CC2)cc1", "qualitative.label": "N"}
{"compound": "CC(=O)N1CCN(Cc2cncn2C(C)c2ccccc2-c2ccc(F)cc2)CC1 (stereo not drawn)", "qualitative.label": "N"}
{"compound": "Cc1cccc2nc(N3CCN(Cc4cncn4[C@H](C)c4ccc(C#N)cc4)CC3)oc12", "qualitative.label": "N"}
{"compound": "c1ccc(CCn2cncc2CN2CCN(c3nc4ccccc4o3)CC2)nc1", "qualitative.label": "N"}
{"compound": "C[C@H](c1ccc(F)cc1)n1cncc1CN1CCN(C(=O)c2ccccc2)C(c2ccccc2)C1 (single isomer, unassigned) [Compound 50a]", "qualitative.label": "N"}
{"compound": "CCS(=O)(=O)c1cnc(N2CCN(Cc3cncn3[C@H](C)Cc3ccc(F)cc3)CC2)s1", "qualitative.label": "N"}
{"compound": "C[C@H](c1ccc(F)cc1)n1cncc1CN1CCN(Cc2ccccc2)C(=O)C1", "qualitative.label": "N"}
{"compound": "CC(c1ccccc1-c1ccc(F)cc1)n1cncc1CN1CCN(CCO)CC1 (stereo not drawn)", "qualitative.label": "N"}
{"compound": "C[C@H](c1ccc(F)cc1)n1cncc1CN1CCN(c2ccccc2)[C@H](C(=O)N2CCCCC2)C1", "qualitative.label": "N"}
{"compound": "CCc1noc(C2(C)CCN(Cc3cncn3[C@H](C)c3ccc(F)cc3)CC2)n1", "qualitative.label": "N"}
{"compound": "CNc1ncc(CN2CCN(Cc3cncn3[C@H](C)c3ccc(F)cc3)CC2=O)s1", "qualitative.label": "N"}
{"compound": "C[C@H](c1ccc(F)cc1)n1cncc1CN1CCN(Cc2cnc(N(C)C)s2)C(=O)C1", "qualitative.label": "N"}
{"compound": "C[C@H](c1ccc(C#N)cc1)n1cncc1CN1CCN(c2ccccc2)C(C(=O)N2CCCCC2)C1 (single isomer, unassigned) [Compound 45a]", "qualitative.label": "N"}
{"compound": "CC(c1ccccc1-c1ccc(F)cc1)n1cncc1CN1CCN(C(=O)c2ccccc2)CC1 (stereo not drawn)", "qualitative.label": "Y"}
{"compound": "C[C@H](c1ccc(F)cc1)n1cncc1CN1CCN(C(=O)c2ccccn2)C(c2ccccc2)C1 (stereo partly drawn)", "qualitative.label": "N"}
{"compound": "CC(c1ccc(S(C)(=O)=O)cc1)n1cncc1CN1CCN(c2nc3ccccc3o2)CC1 (stereo not drawn)", "qualitative.label": "Y"}
{"compound": "C[C@H](c1ccc(F)cc1)n1cncc1CN1CCN(C(=O)C2CCOCC2)C(c2ccccc2)C1 (single isomer, unassigned) [Compound 52a]", "qualitative.label": "Y"}
{"compound": "C[C@H](c1ccc(F)cc1)n1cncc1CN1CCN(C(=O)C2(C)CC2)C(c2ccc(N(C)C)cc2)C1 (stereo partly drawn)", "qualitative.label": "Y"}
{"compound": "C[C@H](c1ccc(C#N)cc1)n1cncc1CN1CCN(c2nc3ccc(F)c(F)c3o2)CC1", "qualitative.label": "Y"}
{"compound": "CCCC1(C#N)CCN(Cc2cncn2[C@H](C)c2ccc(F)cc2)CC1", "qualitative.label": "N"}
{"compound": "CC(c1ccccc1-c1ccc(F)cc1)n1cncc1CN1CCC(O)C1 (stereo not drawn)", "qualitative.label": "N"}
{"compound": "CC(C)c1noc(C2(C)CCN(Cc3cncn3[C@H](C)c3ccc(F)cc3)CC2)n1", "qualitative.label": "N"}
{"compound": "C[C@H](c1ccc(C#N)cc1)n1cncc1CN1CCN(c2nc3ccccc3o2)CC1", "qualitative.label": "N"}
{"compound": "C[C@H](c1ccc(C#N)cc1)n1cncc1CN1CCN(c2ccccc2)C(C(=O)NC(C)(C)C)C1 (stereo partly drawn)", "qualitative.label": "N"}

---

Listed here are compounds together with their documented IC50.
- experimental.target: CYP3A4 (Homo sapiens, UniProt P08684)
- Construct: 0.1 mg/mL protein human liver microsomes (BD Gentest); tissue BD Gentest; host or cells: human liver microsomes
- Sequence (P08684 whole entry): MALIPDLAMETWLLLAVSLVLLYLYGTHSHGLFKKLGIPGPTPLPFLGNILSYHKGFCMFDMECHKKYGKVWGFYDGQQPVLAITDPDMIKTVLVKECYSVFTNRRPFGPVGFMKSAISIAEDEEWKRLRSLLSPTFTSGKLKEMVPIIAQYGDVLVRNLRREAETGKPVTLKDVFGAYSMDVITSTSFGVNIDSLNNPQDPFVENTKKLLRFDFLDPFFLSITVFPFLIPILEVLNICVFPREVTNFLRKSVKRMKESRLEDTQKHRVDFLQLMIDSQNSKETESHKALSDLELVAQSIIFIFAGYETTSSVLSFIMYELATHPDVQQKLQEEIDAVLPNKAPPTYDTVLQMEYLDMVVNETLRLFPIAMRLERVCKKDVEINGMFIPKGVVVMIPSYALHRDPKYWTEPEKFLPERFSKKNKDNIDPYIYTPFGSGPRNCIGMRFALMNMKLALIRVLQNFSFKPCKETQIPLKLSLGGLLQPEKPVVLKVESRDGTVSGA
- assay.protocol: Cocktail assay for CYPs in human liver microsomes: CYP3A4 (midazolam 1′-hydroxylation)
- Assay type: biochemical
- protocol.conditions: human liver microsomes 0.1 mg/mL, 2 μM midazolam, 10 min at 37° C., 6 concentrations up to 10 μM; read-out: IC50 (nM) CYP3A4
measured.endpoint: IC50 (nM)

{"compound": "C[C@H](c1ccc(F)cc1)n1cncc1CN1CCN(C(=O)C2CCOCC2)C(c2ccccc2)C1 (single isomer, unassigned) [Compound 52b]", "result.unit": "nM", "readout.number": 27}
{"compound": "CC(Cn1cncc1CN1CCN(c2nc3ccccc3o2)CC1)C(F)(F)F (centres unmarked)", "result.unit": "nM", "readout.number": 45}
{"compound": "C[C@H](c1ccc(F)cc1)n1cncc1CN1CCN(Cc2cnc(N3CCN(C)CC3)s2)C(=O)C1", "result.unit": "nM", "readout.number": 56}
{"compound": "CC(c1ccccc1-c1ccc(F)cc1)n1cncc1CN1CCC(F)(F)C1 (centres unmarked)", "result.unit": "nM", "readout.number": 18}
{"compound": "COc1ccc2nc(N3CCN(Cc4cncn4[C@H](C)c4ccc(C#N)cc4)CC3)sc2c1", "result.unit": "nM", "readout.number": 31}
{"compound": "CC(c1ccccc1-c1ccc(F)cc1)n1cncc1CN1CCCNC(=O)C1 (centres unmarked)", "result.unit": "nM", "readout.number": 29}
{"compound": "CCS(=O)(=O)CCc1cnc(N2CCN(Cc3cncn3[C@H](C)Cc3ccc(F)cc3)CC2)s1", "result.unit": "nM", "readout.number": 30}
{"compound": "C[C@H](c1ccc(F)cc1)n1cncc1CN1CCN(Cc2ccccc2Cn2cncn2)C(=O)C1", "result.unit": "nM", "readout.number": 43}

---

Listed here are compounds together with their documented IC50.
- experimental.target: CYP2C9 (Homo sapiens)
- Construct: 0.1 mg/mL protein human liver microsomes (BD Gentest); tissue BD Gentest; host or cells: human liver microsomes
- Sequence (P11712 whole entry): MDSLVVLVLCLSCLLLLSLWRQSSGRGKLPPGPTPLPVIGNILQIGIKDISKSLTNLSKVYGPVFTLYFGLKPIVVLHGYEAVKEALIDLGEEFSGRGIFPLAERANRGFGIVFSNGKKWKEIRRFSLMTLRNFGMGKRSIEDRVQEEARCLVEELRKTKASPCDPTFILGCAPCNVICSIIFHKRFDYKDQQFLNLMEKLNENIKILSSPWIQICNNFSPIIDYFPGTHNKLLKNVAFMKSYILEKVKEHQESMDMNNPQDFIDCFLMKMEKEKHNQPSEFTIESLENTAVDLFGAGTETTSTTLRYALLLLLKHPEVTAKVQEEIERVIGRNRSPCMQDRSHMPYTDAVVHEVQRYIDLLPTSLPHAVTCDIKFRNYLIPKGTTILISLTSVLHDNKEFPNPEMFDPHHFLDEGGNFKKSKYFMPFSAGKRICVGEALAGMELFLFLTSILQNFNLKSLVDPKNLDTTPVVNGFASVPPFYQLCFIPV
- assay.protocol: Cocktail assay for CYPs in human liver microsomes: CYP2C9 (diclofenac 4′-hydroxylation)
- Type: biochemical
- protocol.conditions: human liver microsomes 0.1 mg/mL, 5 μM diclofenac, 10 min at 37° C., 6 concentrations up to 10 μM; read-out: IC50 (nM) CYP2C9

{"compound": "C[C@H](c1ccc(F)cc1)n1cncc1CN1CCN(Cc2cnc(N(C)C)s2)C(=O)C1", "IC50": "> 10000 nM"}
{"compound": "C[C@H](c1ccc(C#N)cc1)n1cncc1CN1CCC(c2nc3ccccc3o2)CC1", "IC50": "4080 nM"}
{"compound": "C[C@H](c1ccc(F)cc1)n1cncc1CN1CCN(C(=O)C2CCOCC2)C(c2ccccc2)C1 (single isomer, unassigned) [Compound 52a]", "IC50": "> 10000 nM"}
{"compound": "CC(C1CCOCC1)n1cncc1CN1CCN(c2nc3ccccc3o2)CC1 (centres unmarked)", "IC50": "> 10000 nM"}
{"compound": "CCOC(=O)CN1CCN(Cc2cncn2C(C)c2ccccc2-c2ccc(F)cc2)CC1 (centres unmarked)", "IC50": "> 10000 nM"}
{"compound": "CC(c1ccccc1-c1ccc(F)cc1)n1cncc1CN1CCC(O)C1 (centres unmarked)", "IC50": "> 10000 nM"}
{"compound": "C[C@H](c1ccc(C#N)cc1)n1cncc1CN1CCN(c2nc3cccc(F)c3o2)CC1", "IC50": "3870 nM"}
{"compound": "CC(Cn1cncc1CN1CCN(c2nc3ccccc3o2)CC1)C(F)(F)F (centres unmarked)", "IC50": "6980 nM"}
{"compound": "C[C@H](c1ccc(F)cc1)n1cncc1CN1CCN(Cc2ccccc2Cn2cncn2)C(=O)C1", "IC50": "6210 nM"}
{"compound": "CC(c1ccccc1-c1ccc(F)cc1)n1cncc1CN1CCCNC(=O)C1 (centres unmarked)", "IC50": "> 10000 nM"}
{"compound": "CC1CN(Cc2cncn2[C@H](C)c2ccc(C#N)cc2)CC(C)N1C(=O)C1CC(F)(F)C1 (some centres unmarked)", "IC50": "2570 nM"}
{"compound": "CC1(C#N)CCN(Cc2cncn2Cc2nc3ccccc3s2)CC1", "IC50": "3270 nM"}
{"compound": "CC(c1ccccc1-c1ccc(F)cc1)n1cncc1CN1CCS(=O)(=O)CC1 (centres unmarked)", "IC50": "> 10000 nM"}
{"compound": "CC(C)C1(C#N)CCN(Cc2cncn2[C@H](C)c2ccc(F)cc2)CC1", "IC50": "> 10000 nM"}
{"compound": "C[C@H](c1ccc(C#N)cc1)n1cncc1CN1CCN(c2ccccc2)C(C(=O)NC(C)(C)C)C1 (some centres unmarked)", "IC50": "5090 nM"}
{"compound": "CCS(=O)(=O)CCc1cnc(N2CCN(Cc3cncn3[C@H](C)c3ccc(Cl)cc3)CC2)s1", "IC50": "> 10000 nM"}
{"compound": "C[C@H](c1ccc(F)cc1)n1cncc1CN1CCC(C#N)(C2CCOCC2)CC1", "IC50": "8170 nM"}
{"compound": "C[C@H](c1ccc(F)cc1)n1cncc1CN1CCN(C(=O)C2(C)CC2)C(c2ccc(N(C)C)cc2)C1 (some centres unmarked)", "IC50": "2810 nM"}
{"compound": "CC1CN(Cc2cncn2[C@H](C)c2ccc(F)cc2)CC(C)N1C(=O)C1(C)CC1 (some centres unmarked)", "IC50": "2860 nM"}
{"compound": "CC(C)OCCn1cncc1CN1CCN(c2nc3ccccc3o2)CC1", "IC50": "> 10000 nM"}
{"compound": "C[C@H](c1ccc(F)cc1)n1cncc1CN1CCC(C)(C#N)CC1", "IC50": "> 10000 nM"}
{"compound": "C[C@H](c1ccc(C#N)cc1)n1cncc1CN1CCN(c2ccccc2)C(C(=O)N2CCCCC2)C1 (single isomer, unassigned) [Compound 45b]", "IC50": "4000 nM"}
{"compound": "C[C@H](c1ccc(F)cc1)n1cncc1CN1CCN(c2ccccc2)[C@H](C(=O)N2CCCCC2)C1", "IC50": "1470 nM"}
{"compound": "C[C@H](c1ccc(F)cc1)n1cncc1CN1CCN(C(=O)c2ccccn2)C(c2ccccc2)C1 (some centres unmarked)", "IC50": "6120 nM"}
{"compound": "C[C@H](c1ccc(F)cc1)n1cncc1CN1CCN(C(=O)c2ccccc2)C(c2ccccc2)C1 (single isomer, unassigned) [Compound 50a]", "IC50": "4360 nM"}
{"compound": "C[C@H](c1ccc(F)cc1)n1cncc1CN1CCN(Cc2cnc(N3CCN(C)CC3)s2)C(=O)C1", "IC50": "> 10000 nM"}
{"compound": "C[C@H](c1ccc(C#N)cc1)n1cncc1CN1CCC2(CC1)C(=O)NCN2c1ccccc1", "IC50": "1660 nM"}
{"compound": "c1ccc(CCn2cncc2CN2CCN(c3nc4ccccc4o3)CC2)nc1", "IC50": "6520 nM"}
{"compound": "CC(c1ccccc1-c1ccc(F)cc1)n1cncc1CN1CCN(CCO)CC1 (centres unmarked)", "IC50": "> 10000 nM"}
{"compound": "CCCC1(C#N)CCN(Cc2cncn2[C@H](C)c2ccc(F)cc2)CC1", "IC50": "5670 nM"}
{"compound": "CC(c1ccccc1-c1ccc(F)cc1)n1cncc1CN1CCN(C(=O)c2ccccc2)CC1 (centres unmarked)", "IC50": "6480 nM"}
{"compound": "C[C@H](c1ccc(F)cc1)n1cncc1CN1CCN(C(=O)c2ccccc2)C(C(C)(C)C)C1 (some centres unmarked)", "IC50": "2970 nM"}
